Sourced from patent US20260256752A1

experiment: 14-day repeat-dose oral pharmacokinetics in rats; assay type: in vivo, male and female SD rats; details: male rats; oral 100 mg/kg for 14 days; Day 14; read-out: Cmax [μM] male
Short version: Cmax at least 800 µM is label 1, less is label 0.

O=Cc1c(O)cccc1OCc1ccccn1	label 1
O=Cc1c(O)cccc1OCc1cccc(CO)n1 [VZHE-039, reference compound]	label 0
O=Cc1c(O)cccc1OCc1cccnc1	label 0
O=Cc1c(O)cccc1OCc1ncccc1F	label 1

### Prompt Is the recorded value of Cmax equal to or greater than 800 µM for this molecule? CC(C)n1nccc1-c1ncccc1COc1cccc(O)c1C=O [Voxelotor, reference compound]
### Response label 0

---

experiment: Single-dose oral pharmacokinetics in rats; assay type: in vivo, male Sprague Dawley (SD) rats; conditions: rat whole blood; single oral dose 100 mg/kg
readout: log10(Cmax) (log10 of the value in µM)
Log scale reminder: Cmax in µM, then log10 taken.

Take a look at these entries with their results.
O=Cc1c(O)cccc1OCc1ncccc1F	2.54
O=Cc1c(O)cccc1OCc1cccc(CO)n1 [VZHE-039, reference compound]	2.60
O=Cc1c(O)cccc1OCc1cccnc1	2.96
O=Cc1c(O)cccc1OCc1cncnc1	2.20
O=Cc1c(O)cccc1OCc1ccccn1	2.98

Could you tell me log10(Cmax) for each of these molecules? They are listed below.
1. O=Cc1c(O)cccc1OCc1ncccc1Cl
2. O=Cc1c(O)cccc1OCc1cncc(F)c1
3. O=Cc1c(O)cccc1OCc1cccnc1F

### Response
[1.88, 2.38, 1.69]

---

experiment: 14-day repeat-dose oral pharmacokinetics in rats; format: in vivo, male and female SD rats; conditions: male rats; oral 100 mg/kg for 14 days; Day 14
For each entry below, report its AUC0-∞ [μM*h] male value.

Take a look at these entries with their results.
O=Cc1c(O)cccc1OCc1cccc(CO)n1 [VZHE-039, reference compound]	11,585 μM*h
O=Cc1c(O)cccc1OCc1cccnc1	10,490 μM*h
O=Cc1c(O)cccc1OCc1ncccc1F	17,073 μM*h
CC(C)n1nccc1-c1ncccc1COc1cccc(O)c1C=O [Voxelotor, reference compound]	6,760 μM*h

### Prompt Dear colleague, I am looking for the recorded AUC0-∞ [μM*h] male of the following molecule: O=Cc1c(O)cccc1OCc1ccccn1
### Response 20,363 μM*h

---

For each entry below, report its Cmax value.
assay: 14-day repeat-dose oral pharmacokinetics in rats; assay type: in vivo, male and female SD rats; details: female rats; oral 100 mg/kg for 14 days; Day 14; read-out: Cmax [μM] female
Numbers only, in µM.

Take a look at these entries with their results.
O=Cc1c(O)cccc1OCc1ncccc1F	993
O=Cc1c(O)cccc1OCc1cccc(CO)n1 [VZHE-039, reference compound]	894
CC(C)n1nccc1-c1ncccc1COc1cccc(O)c1C=O [Voxelotor, reference compound]	548

Could you tell me Cmax for each of these compounds? They are listed below.
1. O=Cc1c(O)cccc1OCc1ccccn1
2. O=Cc1c(O)cccc1OCc1cccnc1

### Response
1110
534

---

experiment: 14-day repeat-dose oral pharmacokinetics in rats; assay type: in vivo, male and female SD rats; details: female rats; oral 100 mg/kg for 14 days; Day 14
readout: AUC0-∞ [μM*h] female

Take a look at these entries with their results.
O=Cc1c(O)cccc1OCc1cccnc1	8,085 μM*h
O=Cc1c(O)cccc1OCc1ncccc1F	20,566 μM*h
O=Cc1c(O)cccc1OCc1ccccn1	21,547 μM*h
O=Cc1c(O)cccc1OCc1cccc(CO)n1 [VZHE-039, reference compound]	12,188 μM*h

Please turn your attention to the following entry.
### Prompt Dear colleague, I am looking for the recorded AUC0-∞ [μM*h] female of the following compound: CC(C)n1nccc1-c1ncccc1COc1cccc(O)c1C=O [Voxelotor, reference compound]
### Response 7,617 μM*h
